Every entry's value here was drawn from PubChem BioAssay (NCI).

System: SF-268 CNS
Test: NCI-60 one-dose screen, 48 h (100 = growth as untreated, 0 = no growth, -100 = all killed)
Conditions: 10 µM unless noted
Compounds without any hit were thinned out: in the full panel of roughly 83,000, 20% have a hit.
For each entry below, report its growth value.
Answer with a number only, understood to be in %.

Incoming: Query (compound): "CCCCCCCCCCCC(=O)OCCNC(=O)C[n+]1ccccc1" ; field requested: growth
Outgoing: 104

Incoming: Reported growth, compound "O=C(Nc1ccc(-n2cc(-c3ccncc3)c(-c3ccc(O)c(Cl)c3)n2)cc1)c1cc(C(F)(F)F)cc(C(F)(F)F)c1" : ____
Outgoing: 56

Incoming: Consider the compound "CN1CCN(Cn2nc(-c3cc(Cl)cc(Cl)c3Cl)n(/N=C/c3ccc(Cl)cc3)c2=S)CC1" and give its measured growth.
Outgoing: 117

Incoming: Quick one: growth of "OCCOCC(F)(F)F" ?
Outgoing: 102

Incoming: I have this compound here, "CC(C)[C@@H]1NC(=O)[C@]2(C)CSC(=N2)c2ccnc(c2)CNC(=O)C[C@@H](/C=C/CCS)OC1=O" , and I need its recorded growth.
Outgoing: 13

Incoming: What value of growth has been recorded for this entry: "Cc1cc(NC(=O)c2cccc(C(F)(F)F)c2)ccc1-n1ccc2c(NC(=O)c3ccccc3)nccc21"
Outgoing: 103

Incoming: Field request: growth | item: "CCOC(=O)CSc1nnc(-c2cc3c([nH]c4ccccc43)c(-c3cccc(O)c3)n2)n1-c1ccc(C)cc1"
Outgoing: 74.7

Incoming: Quick check: growth of "COC(=O)c1oc2c(C(=O)/C=C/c3ccc(OC)cc3)c(OCCN3CCOCC3)ccc2c1C" ?
Outgoing: 11.5

Incoming: Reported growth for "CC(C)(C)C(=O)/C=c1/[nH]c(=O)/c(=C/c2ccccc2O)s1" : what is it?
Outgoing: 61
